Value source: patent US11938120B1

Kindly supply the reported melting point values for the records listed here.

Solved entries (count: 2):
molecule	melting point
CCOC(=O)c1cc(C(=O)c2ccc(F)cc2)n2c1ccc1cc(C)ccc12	163 to 164 °C
CCOC(=O)c1cc(C(=O)c2ccccc2)n2c1ccc1cc(C)ccc12	139 to 140 °C

Parameters: items (list). Returns: melting point for each item.
1. CCOC(=O)c1cc(C(=O)c2ccc(Br)cc2)n2c1ccc1cc(C)ccc12 [Compound 4e]
2. CCOC(=O)c1cc(C(=O)c2cc(C(F)(F)F)cc(C(F)(F)F)c2)n2c1ccc1cc(C)ccc12 [Compound 4f]
3. CCOC(=O)c1cc(C(=O)c2ccc(C)cc2)n2c1ccc1cc(C)ccc12

180 to 181 °C
223 to 224 °C
155 to 156 °C

// query melting point value for entry CCOC(=O)c1cc(C(=O)c2ccccc2[N+](=O)[O-])n2c1ccc1cc(C)ccc12 [Compound 4d]
174 to 175 °C
